This collection of values is drawn from patent US20230012273A1.

Study Target: T1, full-length human SIRPαV2 (CAA71403.1) on cells (human, UniProt P78324 31-504)
T1 construct: one molecule for CHO-K1 and Expi-CHO transfectants (CAA71403.1) and for endogenous V2 on THP-1 cells and on CD14+ monocytes of V2/V2 donors; also called CHO-hSIRPαV2; αV2 WT
T1 sequence (P78324 other isoform, or with tags, fused parts or gaps): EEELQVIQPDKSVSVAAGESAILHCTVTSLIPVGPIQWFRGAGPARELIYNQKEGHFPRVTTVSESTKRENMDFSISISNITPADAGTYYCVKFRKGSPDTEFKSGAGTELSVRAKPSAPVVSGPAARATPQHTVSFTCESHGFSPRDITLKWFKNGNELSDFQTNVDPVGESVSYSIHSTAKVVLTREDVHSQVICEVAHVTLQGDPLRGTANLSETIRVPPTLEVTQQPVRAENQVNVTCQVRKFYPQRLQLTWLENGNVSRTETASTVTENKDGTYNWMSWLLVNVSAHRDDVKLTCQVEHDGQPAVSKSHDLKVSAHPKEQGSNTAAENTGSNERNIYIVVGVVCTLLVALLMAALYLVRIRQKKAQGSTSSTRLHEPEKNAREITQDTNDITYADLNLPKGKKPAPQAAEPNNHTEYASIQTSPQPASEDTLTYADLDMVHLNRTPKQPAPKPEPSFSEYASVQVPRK
Experimental Protocol: flow cytometry, THP-1 cells (endogenous V2)
Quantity: EC50 (nM)
Give bare numbers, in nM.

Some solved entries appear below for comparison.
Antibody C (antibody, human IgG1, kappa, L234A L235A, V domains shown) VH: EVQLVESGGGLVQPGGSLRLSCAASGFTFSSYDMHWVRQATGKGLEWVSVIGIAGDTYYPGSVKGRFTISRENAKNSLYLQMNSLRVGDTAVYYCARGGSWDDAFDIWGQGTMVTVSS VL: DIQMTQSPSSLSASIGDKVTITCRASQDINNYLAWFQQKPGKAPKSLIYTASSLQSGVPSKFSGSGSGTDFTLTISSLQPEDFATYYCQQYVSYPYTFGQGTKLEIKR: 0.3
Antibody D (antibody, human IgG1, kappa, L234A L235A, V domains shown) VH: EVQLVESGGGLVQPGGSLRLSCAASGFTFSSFDMHWVRQPTGKGLEWVSTIGIAGDTYFPGSVKGRFTISRENAKNSLYLQMNSLRAGDTAVYYCARGGNWDDALDIWGQGTMVTVSS VL: DIQMTQSPSSLSASVGDRVTITCRASQDINNYLAWFQQKPGKAPKSLIYTASSLQSGVPSKFSGSGSGTDFTLTISSLQPEDFATYYCQQYNTYPYTFGQGTKLEIKR: 0.3

Your task in this section: give EC50 for each listed record.
1. Anti-SIRPα antibody KWAR23 (antibody, V domains shown) VH: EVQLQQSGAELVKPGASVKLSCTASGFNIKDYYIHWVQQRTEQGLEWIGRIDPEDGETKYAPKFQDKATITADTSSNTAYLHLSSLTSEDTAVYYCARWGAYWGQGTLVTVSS VL: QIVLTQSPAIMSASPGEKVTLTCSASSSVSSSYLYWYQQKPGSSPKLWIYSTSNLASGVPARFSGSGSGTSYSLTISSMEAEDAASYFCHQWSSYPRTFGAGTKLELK
2. Antibody B (antibody, human IgG1, kappa, L234A L235A, V domains shown) VH: QVQLVQSGAEVKKPGASVKVSCKASGYTFTGNYMHWVRQAPGQGLEWMGWINPNSGGTNYAQKFQGRVTMTRDTSISTAYMELSRLRSDDTAVYYCVSGSGWYENYYYYGMDVWGQGTTVTVSS VL: DIQMTQSPSSVSASVGDRVTITCRASQGISSWLAWYQQKPGKAPKLLIYAESSLQSGVPSRFSGSGSGTDFTLTISSLQPEDFATYYCQQANSFPLTFGGGTKVEIKR

0.2
22.3
